- SYSTEM UNDER TEST: NAD-dependent protein deacetylase sirtuin-1 (Homo sapiens, UniProt Q96EB6)
- Sequence (Q96EB6 whole entry): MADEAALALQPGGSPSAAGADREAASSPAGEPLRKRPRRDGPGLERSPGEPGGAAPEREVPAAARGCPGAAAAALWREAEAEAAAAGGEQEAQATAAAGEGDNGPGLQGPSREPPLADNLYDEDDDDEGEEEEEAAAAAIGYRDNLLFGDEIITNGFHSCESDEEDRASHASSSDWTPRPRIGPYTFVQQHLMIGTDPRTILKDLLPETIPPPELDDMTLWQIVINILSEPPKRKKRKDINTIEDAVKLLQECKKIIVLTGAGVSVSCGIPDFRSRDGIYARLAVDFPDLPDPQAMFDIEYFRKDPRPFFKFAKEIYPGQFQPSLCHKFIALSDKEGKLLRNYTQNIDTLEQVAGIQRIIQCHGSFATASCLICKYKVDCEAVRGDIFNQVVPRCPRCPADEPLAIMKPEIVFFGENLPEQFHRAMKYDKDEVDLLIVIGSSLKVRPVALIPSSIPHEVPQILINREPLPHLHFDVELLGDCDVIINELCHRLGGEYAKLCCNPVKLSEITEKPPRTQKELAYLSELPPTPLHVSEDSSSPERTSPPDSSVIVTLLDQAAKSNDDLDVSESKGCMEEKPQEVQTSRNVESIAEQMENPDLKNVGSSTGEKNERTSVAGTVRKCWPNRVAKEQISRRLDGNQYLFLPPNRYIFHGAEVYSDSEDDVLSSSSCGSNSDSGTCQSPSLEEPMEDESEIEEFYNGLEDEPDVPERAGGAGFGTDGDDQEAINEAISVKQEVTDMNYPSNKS
- EXPERIMENTAL DETAILS: Inhibition of human recombinant SIRT1 using Fluor de Lys-SIRT as substrate incubated for 60 mins prior to substrate addition measured after 60 mins by fluorimetric analysis
IC50 for assorted compounds
ENDPOINT NAME: IC50

INSERT INTO measurements (smi, result) VALUES
  ('NC(=O)c1ccccc1Nc1ccc(-c2ccccc2)cc1', '> 100 µM'),
  ('CN(C(=O)c1ccccc1)c1ccc(Nc2ccccc2C(N)=O)cc1', '> 100 µM'),
  ('COC(=O)c1ccc(Nc2ccccc2C(N)=O)cc1', '> 100 µM'),
  ('NC(=O)c1ccccc1Nc1cccc(OCC2CCCCC2)c1', '210 µM'),
  ('NC(=O)c1ccccc1Nc1cccc(OCCc2ccc(F)cc2)c1', '> 100 µM'),
  ('Cc1ccc(Nc2ccccc2C(N)=O)cc1', '> 100 µM'),
  ('NC(=O)c1ccccc1Nc1ccc(NC(=O)c2ccccn2)cc1', '> 100 µM'),
  ('CC(C)COc1cccc(Nc2ccccc2C(N)=O)c1', '> 300 µM'),
  ('NC(=O)c1ccccc1Nc1ccc(NC(=O)C2CCNCC2)cc1', '> 100 µM'),
  ('NC(=O)c1ccccc1Nc1cccc(OCCc2ccccc2Cl)c1', '> 100 µM'),
  ('NC(=O)c1ccccc1Nc1cccc(OCCc2ccccc2Br)c1', '> 100 µM'),
  ('CN(Cc1ccccc1)C(=O)c1cccc(Nc2ccccc2C(N)=O)c1', '> 100 µM');
